Assay: gradient 5% acetonitrile 3 min, to 50% in 2 min, to 85% in 15 min, held 3 min, 100 µL/min
Settings: column: Zorbax Extend-C18 2.1 x 50 mm; eluents: water / acetonitrile, 0.1% formic acid
measuredProperty: RP-LC retention time (s)

{"molecule": "CN(C)c1ccc(-c2nc3cnc(Br)cn3c2Nc2ccc3c(c2)OCO3)cc1", "reportedResult": 894}
{"molecule": "CCc1noc(NC(C)=O)c1-c1ccc(OC)c(S(=O)(=O)NCc2ccccc2C)c1", "reportedResult": 884}
{"molecule": "O=C(NCc1ccc(F)cc1F)C1CCN(C(=O)c2ncn3c2COC(c2ccccc2)C3)CC1 (centres undefined)", "reportedResult": 784}
{"molecule": "COc1ccccc1CC(=O)Nc1ccc2c(c1)CCC(=O)N2", "reportedResult": 670}
